- experiment-summary: in vivo
- Set-up: species or system mice
- conditions: male, NODSCID 1L2RγKO, mouse, iv, total radioactivity, Intestine uptake
Mark Yes only for tissue uptake at 120 h values smaller than 0.2 %ID/g; exact matches and larger values are No.

As a guide, the following entries are already answered.
>>> group_label("O=C(O)CCC[C@H](NC(=O)N[C@@H](CCCCNC(=O)[C@H](Cc1c2ccccc2cc2ccccc12)NC(=O)[C@H]1CC[C@H](CNC(=O)CN2CCN(CC(=O)O)CCN(CC(=O)O)CCN(CC(=O)O)CC2)CC1)C(=O)O)C(=O)O [177Lu-HTK03149, metal not drawn]")
"No"
>>> group_label("COc1ccc(CCCC(=O)NCC(=O)N[C@@H](CCCCNC(=O)CN2CCN(CC(=O)O)CCN(CC(=O)O)CCN(CC(=O)O)CC2)C(=O)NC[C@H]2CC[C@H](C(=O)N[C@@H](Cc3c4ccccc4cc4ccccc34)C(=O)NCCCC[C@H](NC(=O)N[C@@H](COCC(=O)O)C(=O)O)C(=O)O)CC2)cc1 [177Lu-HTK04028, metal not drawn]")
"Yes"
>>> group_label("O=C(O)CCC[C@H](NC(=O)N[C@@H](CCCCNC(=O)[C@H](Cc1c2ccccc2cc2ccccc12)NC(=O)[C@H]1CC[C@H](CNC(=O)[C@H](CCCCNC(=O)CN2CCN(CC(=O)O)CCN(CC(=O)O)CCN(CC(=O)O)CC2)NC(=O)CNC(=O)CCCc2ccc(Cl)cc2)CC1)C(=O)O)C(=O)O [177Lu-HTK03153, metal not drawn]")
"Yes"
>>> group_label("COc1ccc(CCCC(=O)NCC(=O)N[C@@H](CCCCNC(=O)CN2CCN(CC(=O)O)CCN(CC(=O)O)CCN(CC(=O)O)CC2)C(=O)NC[C@H]2CC[C@H](C(=O)N[C@@H](Cc3c4ccccc4cc4ccccc34)C(=O)NCCCC[C@H](NC(=O)N[C@@H](CCCC(=O)O)C(=O)O)C(=O)O)CC2)cc1 [177Lu-HTK03170, metal not drawn]")
"Yes"

With those in mind, consider the next compound.
hey, is tissue uptake at 120 h for COc1ccc(CCCC(=O)NCC(=O)N[C@@H](CCCCNC(=O)CN2CCN(CC(=O)O)CCN(CC(=O)O)CCN(CC(=O)O)CC2)C(=O)NC[C@H]2CC[C@H](C(=O)N[C@@H](Cc3c4ccccc4cc4ccccc34)C(=O)NCCCC[C@H](NC(=O)N[C@@H](CSCC(=O)O)C(=O)O)C(=O)O)CC2)cc1 [177Lu-HTK04048, metal not drawn] lower than 0.2 %ID/g or not?
Yes

====

- experiment-summary: in vivo
- Parameters: species or system mice
- conditions: male, NODSCID 1L2RγKO, mouse, iv, total radioactivity, Seminal uptake
observable: tissue uptake at 72 h (%ID/g)
Quick note: give the figure in %ID/g, leave out the unit.

Example results:
>>> recorded_measurement("COc1ccc(CCCC(=O)NCC(=O)N[C@@H](CCCCNC(=O)CN2CCN(CC(=O)O)CCN(CC(=O)O)CCN(CC(=O)O)CC2)C(=O)NC[C@H]2CC[C@H](C(=O)N[C@@H](Cc3c4ccccc4cc4ccccc34)C(=O)NCCCC[C@H](NC(=O)N[C@@H](CSCC(=O)O)C(=O)O)C(=O)O)CC2)cc1 [177Lu-HTK04048, metal not drawn]")
0.06
>>> recorded_measurement("COc1ccc(CCCC(=O)NCC(=O)N[C@@H](CCCCNC(=O)CN2CCN(CC(=O)O)CCN(CC(=O)O)CCN(CC(=O)O)CC2)C(=O)NC[C@H]2CC[C@H](C(=O)N[C@@H](Cc3c4ccccc4cc4ccccc34)C(=O)NCCCC[C@H](NC(=O)N[C@@H](COCC(=O)O)C(=O)O)C(=O)O)CC2)cc1 [177Lu-HTK04028, metal not drawn]")
0.05

What tissue uptake at 72 h value was documented for this molecule, COc1ccc(CCCC(=O)NCC(=O)N[C@@H](CCCCNC(=O)CN2CCN(CC(=O)O)CCN(CC(=O)O)CCN(CC(=O)O)CC2)C(=O)NC[C@H]2CC[C@H](C(=O)N[C@@H](Cc3c4ccccc4cc4ccccc34)C(=O)NCCCC[C@H](NC(=O)N[C@@H](CCCC(=O)O)C(=O)O)C(=O)O)CC2)cc1 [177Lu-HTK03170, metal not drawn] ?
0.04
